// reported melting point for each item listed
endpoint label: melting point

1) Cc1c(C#N)sc2nc(CCc3ccccc3)nc(NC3CCC3)c12    153 to 155 °C
2) CCCCc1nc2cccc(C=O)c2n1Cc1ccccc1Cl    114 to 115 °C
3) Oc1ccc2c(c1O)OCC(c1ccc(F)cc1)C2 (stereo not drawn)    166 to 168 °C
4) CC(C)(C)OC(=O)NCCCCC/C=C/C(=O)O    76 to 78 °C
5) COCC(O)=C(N)C(=O)O    186 to 187 °C
6) COc1ccccc1C(=O)CC(=O)c1ccccc1O    80 to 84 °C
7) OCc1cccc(C(O)(C(F)(F)F)C(F)(F)F)n1    62 to 63 °C
8) CCOC(=O)c1ccc2[nH]c3c(c2c1)CC(N(C)C)CC3 (stereo not drawn)    188 to 190 °C

###

// reported melting point for each item listed
endpoint label: melting point

1. NCc1ccc(CNC(=O)[C@@H](CCCNC(N)=N[N+](=O)[O-])NC(=O)C(c2ccccc2)c2ccccc2)cc1    198 to 199 °C
2. COC(=O)[C@H](CC(=O)OC(C)(C)C)NC(=O)c1cccc(NC(=O)c2ccc(C#N)cc2)c1    83 to 84 °C
3. FC(F)Oc1cccc2cnsc12    58 to 59 °C
4. CCCN(CCCc1c[nH]c2c(F)cc(F)cc12)C1COc2c(C(N)=O)ccc(F)c2C1 (stereo not drawn)    130 °C
5. CCc1c(C)nc(SCc2cc(C)ccn2)[nH]c1=O    130 to 132 °C
6. Cc1cc(CCC(=O)O)no1    82 to 84 °C
7. O=c1oc(-c2ccccc2)cc(O)c1SCC1CCCCC1    141 to 143 °C
8. COc1ccc2c(c1)c(CCc1cc(=O)n(C3CCCCC3)[nH]1)c(C)n2C(=O)c1ccc(Cl)cc1    110 °C
9. CCN(CC)CCOc1cccc2c1c1cc(F)ccc1n2Cc1ccccc1    68 to 69 °C
10. Cc1sc(-n2cccc2)c(C#N)c1C    45 °C
11. O[C@@H]1CN(Cc2ccccc2)C[C@@H]1Oc1cccc(Cl)c1 (relative stereo)    86 to 87.5 °C
12. COC(=O)c1ccc(C)c(-n2c(C)cc(OCc3ccccc3CNC(=O)Nc3cc(C(C)(C)C)nn3-c3ccc(O)cc3)c(Cl)c2=O)c1    199 to 200 °C
13. Cc1ccc2c(c1)N=C(N1CCC(C)CC1)c1cccc3c1N2CC3    194 to 196 °C
14. CCCN(CCC)C(=O)Cn1c(=O)n(C)c2cnc(-c3ccccc3)nc21    156 to 157 °C
15. O=C1CC(=O)N(Cc2ccccc2)[C@H](Cc2ccccc2)C1    97 to 97.5 °C
16. COC(=O)c1ccc2c(=O)[nH]c(=O)n(CCCCN3CCC(OC(c4ccccc4)c4ccccc4)CC3)c2c1    192 to 194 °C
17. Clc1ccc(-c2cc(C3CCN(Cc4ccccc4)CC3)no2)cc1    112 to 114 °C
18. CN(C)c1ccc(-c2nc3c(N[C@H]4[C@@H](C(N)=O)[C@@H]5C=C[C@H]4C5)ccnc3[nH]2)cc1    245 to 251 °C
19. N#Cc1c(Cl)cc(OCc2ccncc2)cc1OC(C(=O)O)c1ccccc1Cl (racemic)    165 to 167 °C
20. CNc1c(C)cc(C(C)(C)c2ccc(C(C)(C)c3cc(C)c(NC)c(C)c3)cc2)cc1C    110 to 115 °C
21. COc1cc(C(=O)N2CCN(C(=O)C=C(c3ccccc3)c3ccccc3)CC2)cc(OC)c1OC    148 to 150 °C
22. Cc1cn(CC(=O)c2ccc(-c3ccc(N4C[C@H](Cn5ccnn5)OC4=O)cc3F)cn2)c(C)n1    78 °C
23. Cc1cc(C#N)sc1-c1ccc2c(c1)C(C)(C)C(=O)N2    192 to 193 °C
24. O=C(O)c1cccc2nc(OCC(F)(F)F)n(Cc3ccc(-c4ccccc4-c4nnn[nH]4)cc3)c12    204 to 206 °C
25. Cc1cccc(NC(=O)OCCS(C)(=O)=O)c1CNc1cccn2c(C)c(C)nc12    161 to 162 °C
26. Cn1c(=O)[nH]c2sccc2c1=O    263 to 265 °C
27. Cc1nc(Cn2c(=O)sc3cc(F)c(N)cc32)no1    156 to 157 °C
28. NS(=O)(=O)c1ccc(-c2[nH]c3ccccc3c2-c2ccc(Br)cc2)cc1    277 to 279 °C
29. COc1ccc(C(=O)C=C2CCCN2)cc1    134 to 135 °C
30. C1CC2CNCCNCCNCCNCC(C1)N2    90 to 90.5 °C
31. CC(C#N)Oc1cccc(C=Cc2ccc3ccc(Cl)cc3n2)c1 (stereo not drawn)    118 to 120 °C
32. Nc1nc(Nc2ccc(SC3(Cl)C=CC(C(F)(F)F)=CN3)cc2)sc1C(=O)c1ccccc1[N+](=O)[O-] (stereo not drawn)    150 to 152 °C
33. CCCCCCc1c(Cl)nc(NC=O)nc1Cl    80 to 81 °C
